Entries annotated with measured Ka
biological target: UniProtKB O43570; assay: Binding affinity to human CA12 by phenol red dye based stopped flow CO2 hydration assay; settings: filed as activator
Sequence (O43570 whole entry): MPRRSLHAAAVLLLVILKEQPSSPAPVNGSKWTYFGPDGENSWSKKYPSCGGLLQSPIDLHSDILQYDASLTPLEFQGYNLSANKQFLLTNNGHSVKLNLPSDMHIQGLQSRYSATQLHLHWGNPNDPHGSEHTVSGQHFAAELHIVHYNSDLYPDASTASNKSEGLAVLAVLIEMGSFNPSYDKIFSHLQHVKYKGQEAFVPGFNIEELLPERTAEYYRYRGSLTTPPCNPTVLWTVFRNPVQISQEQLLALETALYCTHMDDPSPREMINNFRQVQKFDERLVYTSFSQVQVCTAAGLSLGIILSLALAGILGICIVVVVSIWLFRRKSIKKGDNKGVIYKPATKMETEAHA
Respond with the bare value in µM.

>  <Compound>
Cc1ccccc1[Se]CC(C)N (stereo not drawn)

>  <Value unit>
µM

>  <Ka>
51.8

$$$$
>  <Compound>
COc1ccc([Se]CC(C)N)cc1 (stereo not drawn)

>  <Value unit>
µM

>  <Ka>
68.8

$$$$
>  <Compound>
Cc1cccc(C)c1[Se]CC(C)N (stereo not drawn)

>  <Value unit>
µM

>  <Ka>
78.2

$$$$
>  <Compound>
CC(N)CSc1ccccc1Br (stereo not drawn)

>  <Value unit>
µM

>  <Ka>
46.7

$$$$
>  <Compound>
CC(N)CSc1ccc(Br)cc1 (stereo not drawn)

>  <Value unit>
µM

>  <Ka>
72.9

$$$$
>  <Compound>
CC(N)CSc1ccccc1 (stereo not drawn)

>  <Value unit>
µM

>  <Ka>
43.3

$$$$
>  <Compound>
CC(N)C[Te]c1ccccc1 (stereo not drawn)

>  <Value unit>
µM

>  <Ka>
52.5

$$$$

Req: What reported Ka corresponds to Cc1ccc([Te]CC(C)N)cc1 (stereo not drawn) on UniProtKB O43570?
Resp: 80.4

###

target: Carbonic anhydrase 5B, mitochondrial (Homo sapiens) (UniProt Q9Y2D0); test: Binding affinity to human CA5b by phenol red dye based stopped flow CO2 hydration assay; details: filed as activator
Sequence (Q9Y2D0 whole entry): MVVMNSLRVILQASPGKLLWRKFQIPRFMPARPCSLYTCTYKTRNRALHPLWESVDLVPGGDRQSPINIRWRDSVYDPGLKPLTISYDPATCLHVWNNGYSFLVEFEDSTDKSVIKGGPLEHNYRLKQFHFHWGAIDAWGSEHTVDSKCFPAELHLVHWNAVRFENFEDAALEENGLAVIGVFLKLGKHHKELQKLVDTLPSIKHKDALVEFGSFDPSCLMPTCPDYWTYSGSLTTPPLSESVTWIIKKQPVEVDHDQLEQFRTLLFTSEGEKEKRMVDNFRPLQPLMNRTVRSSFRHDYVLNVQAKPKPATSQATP
Entries annotated with measured Ka
Respond with the bare value in µM.

The examples below pair each entry with its known result.
>  <Compound>
Cc1ccc([Se]CC(C)N)cc1 (stereo unspecified)

>  <Observed property>
Ka

>  <Quantitative readout>
15.7

$$$$
>  <Compound>
CC(N)C[Se]c1ccc(F)cc1 (stereo unspecified)

>  <Observed property>
Ka

>  <Quantitative readout>
20.2

$$$$
>  <Compound>
Cc1cccc(C)c1[Se]CC(C)N (stereo unspecified)

>  <Observed property>
Ka

>  <Quantitative readout>
22.7

$$$$
>  <Compound>
COc1cc([Te]CC(C)N)cc(OC)c1OC (stereo unspecified)

>  <Observed property>
Ka

>  <Quantitative readout>
29.5

$$$$
>  <Compound>
COc1ccc([Te]CC(C)N)cc1 (stereo unspecified)

>  <Observed property>
Ka

>  <Quantitative readout>
22.5

$$$$

Req: Quick one: Ka of CC(N)C[Se]c1ccc(N(C)C)cc1 (stereo unspecified) ?
Resp: 21.8

Req: Quick one: Ka of CC(N)CSc1cccc(Br)c1 (stereo unspecified) ?
Resp: 11.5

Req: Quick one: Ka of CC(N)C[Te]c1ccccc1 (stereo unspecified) ?
Resp: 21.7

Req: Quick one: Ka of Cc1ccccc1[Se]CC(C)N (stereo unspecified) ?
Resp: 23.7

Req: Quick one: Ka of Cc1ccc([Te]CC(C)N)cc1 (stereo unspecified) ?
Resp: 15.7

Req: Quick one: Ka of CC(N)CSc1ccccc1Br (stereo unspecified) ?
Resp: 12.8

Req: Quick one: Ka of CC(N)CSc1ccccc1 (stereo unspecified) ?
Resp: 18.7

Req: Quick one: Ka of COc1ccc([Se]CC(C)N)cc1 (stereo unspecified) ?
Resp: 25.8

###

Entries annotated with measured log10 Ka
biological target: UniProt:P43166; experiment: Binding affinity to human CA7 by phenol red dye based stopped flow CO2 hydration assay; details: filed as activator
Sequence (P43166 whole entry): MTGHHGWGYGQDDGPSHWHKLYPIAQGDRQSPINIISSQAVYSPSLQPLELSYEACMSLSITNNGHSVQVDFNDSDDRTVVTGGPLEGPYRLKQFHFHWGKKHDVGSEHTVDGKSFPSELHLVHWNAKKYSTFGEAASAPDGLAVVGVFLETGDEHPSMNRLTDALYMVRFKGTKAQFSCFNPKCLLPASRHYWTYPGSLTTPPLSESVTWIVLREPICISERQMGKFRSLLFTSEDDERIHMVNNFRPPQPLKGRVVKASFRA
The base-10 logarithm of Ka, taken with Ka in µM, is what appears here.

Req: Quick one: log10 Ka of COc1cc([Te]CC(C)N)cc(OC)c1OC (stereo not drawn) ?
Resp: 1.16

Req: Quick one: log10 Ka of CC(N)Cc1ccccc1 (stereo not drawn) [AMPHETAMINE] ?
Resp: -0.04

Req: Quick one: log10 Ka of CC(N)CSc1ccccc1 (stereo not drawn) ?
Resp: 1.37

###

biological target: Carbonic anhydrase 3 (Homo sapiens); assay: Binding affinity to human CA3 by phenol red dye based stopped flow CO2 hydration assay; conditions: filed as activator
Entries annotated with measured log10(Ka)
The base-10 logarithm of Ka, taken with Ka in µM, is what appears here.

>  <Compound>
CC(N)CSc1ccccc1Br (stereo unspecified)

>  <log10(Ka)>
1.85

$$$$
>  <Compound>
Cc1ccc([Te]CC(C)N)cc1 (stereo unspecified)

>  <log10(Ka)>
1.87

$$$$
>  <Compound>
Cc1ccc([Se]CC(C)N)cc1 (stereo unspecified)

>  <log10(Ka)>
1.31

$$$$
>  <Compound>
COc1cc([Te]CC(C)N)cc(OC)c1OC (stereo unspecified)

>  <log10(Ka)>
1.78

$$$$
>  <Compound>
COc1ccc([Se]CC(C)N)cc1 (stereo unspecified)

>  <log10(Ka)>
1.82

$$$$

Req: Quick one: log10(Ka) of CC(N)Cc1ccccc1 (stereo unspecified) ?
Resp: 1.94

Req: Quick one: log10(Ka) of CC(N)C[Se]c1ccccc1 (stereo unspecified) ?
Resp: 1.16

###

molecular target: Carbonic anhydrase 9 (Homo sapiens) (UniProt Q16790); assay: Binding affinity to human CA9 by phenol red dye based stopped flow CO2 hydration assay; conditions: filed as activator
Observed property: Ka (µM)
Respond with the bare value in µM.

>  <Compound>
CC(N)CSc1cccc(Br)c1 (stereo not given)

>  <Value unit>
µM

>  <Ka>
77.9

$$$$
>  <Compound>
CC(N)CSc1ccccc1 (stereo not given)

>  <Value unit>
µM

>  <Ka>
74.8

$$$$
>  <Compound>
COc1ccc([Se]CC(C)N)cc1 (stereo not given)

>  <Value unit>
µM

>  <Ka>
73.2

$$$$
>  <Compound>
COc1cc([Te]CC(C)N)cc(OC)c1OC (stereo not given)

>  <Value unit>
µM

>  <Ka>
85.2

$$$$

Req: What reported Ka corresponds to CC(N)C[Se]c1ccc(N(C)C)cc1 (stereo not given) on Carbonic anhydrase 9 (Homo sapiens) (UniProt Q16790)?
Resp: 70.1

Req: What reported Ka corresponds to CC(N)CSc1ccccc1Br (stereo not given) on Carbonic anhydrase 9 (Homo sapiens) (UniProt Q16790)?
Resp: 56.6

Req: What reported Ka corresponds to Cc1cccc(C)c1[Se]CC(C)N (stereo not given) on Carbonic anhydrase 9 (Homo sapiens) (UniProt Q16790)?
Resp: 81.2

Req: What reported Ka corresponds to COc1ccc([Te]CC(C)N)cc1 (stereo not given) on Carbonic anhydrase 9 (Homo sapiens) (UniProt Q16790)?
Resp: 47.9

###

biological target: UniProtKB P27338
Sequence (P27338 whole entry): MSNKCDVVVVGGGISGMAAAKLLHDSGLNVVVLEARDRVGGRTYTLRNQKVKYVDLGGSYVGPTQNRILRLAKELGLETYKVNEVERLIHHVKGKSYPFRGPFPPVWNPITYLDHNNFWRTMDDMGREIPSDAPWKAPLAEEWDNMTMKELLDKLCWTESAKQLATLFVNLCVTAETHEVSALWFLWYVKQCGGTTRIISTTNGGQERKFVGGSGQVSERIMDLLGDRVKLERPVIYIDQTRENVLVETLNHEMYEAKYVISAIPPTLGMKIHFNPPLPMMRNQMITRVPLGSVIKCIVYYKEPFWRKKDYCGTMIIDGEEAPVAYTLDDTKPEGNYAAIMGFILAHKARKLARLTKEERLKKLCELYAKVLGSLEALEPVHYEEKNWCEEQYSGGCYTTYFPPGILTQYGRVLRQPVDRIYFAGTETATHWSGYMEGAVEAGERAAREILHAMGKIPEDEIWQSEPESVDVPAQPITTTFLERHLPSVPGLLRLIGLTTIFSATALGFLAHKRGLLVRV
Binarize IC50 at 20 µM; below is 1.0, at or above is 0.0.

Here's what some known entries look like.
>  <Molecule>
COc1ccc([Se]CC(C)N)cc1 (configuration not stated)

>  <Classification>
0.0

$$$$
>  <Molecule>
CC(N)C[Se]c1ccc(N(C)C)cc1 (configuration not stated)

>  <Classification>
0.0

$$$$
>  <Molecule>
Cc1ccc([Se]CC(C)N)cc1 (configuration not stated)

>  <Classification>
0.0

$$$$

Req: Given the entry Cc1cccc(C)c1[Se]CC(C)N (configuration not stated) , would its reported IC50 be below 20 µM?
Resp: 1.0

Req: Given the entry Cc1ccccc1[Se]CC(C)N (configuration not stated) , would its reported IC50 be below 20 µM?
Resp: 1.0

Req: Given the entry COc1ccc([Te]CC(C)N)cc1 (configuration not stated) , would its reported IC50 be below 20 µM?
Resp: 0.0

Req: Given the entry CC(N)C[Se]c1ccc(F)cc1 (configuration not stated) , would its reported IC50 be below 20 µM?
Resp: 1.0

###

target: Carbonic anhydrase 13 (Homo sapiens) (UniProt Q8N1Q1); experiment: Binding affinity to human CA13 by phenol red dye based stopped flow CO2 hydration assay; settings: filed as activator
Sequence (Q8N1Q1 whole entry, looked up): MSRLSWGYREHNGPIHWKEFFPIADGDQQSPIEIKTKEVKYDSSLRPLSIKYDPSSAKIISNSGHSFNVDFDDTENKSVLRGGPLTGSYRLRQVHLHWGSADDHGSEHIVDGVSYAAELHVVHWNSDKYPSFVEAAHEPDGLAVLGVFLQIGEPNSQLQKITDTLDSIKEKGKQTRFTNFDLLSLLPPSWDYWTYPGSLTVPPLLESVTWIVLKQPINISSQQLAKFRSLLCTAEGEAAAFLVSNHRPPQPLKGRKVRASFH
Entries annotated with measured Ka
Respond with the bare value in µM.

The examples below pair each entry with its known result.
>  <Molecule>
Cc1cccc(C)c1[Se]CC(C)N (stereo not drawn)

>  <Value unit>
µM

>  <Ka>
83.3

$$$$
>  <Molecule>
CC(N)CSc1ccccc1Br (stereo not drawn)

>  <Value unit>
µM

>  <Ka>
90.9

$$$$
>  <Molecule>
CC(N)CSc1ccccc1 (stereo not drawn)

>  <Value unit>
µM

>  <Ka>
82.4

$$$$
>  <Molecule>
CC(N)C[Se]c1ccccc1 (stereo not drawn)

>  <Value unit>
µM

>  <Ka>
58.6

$$$$
>  <Molecule>
CC(N)C[Te]c1ccccc1 (stereo not drawn)

>  <Value unit>
µM

>  <Ka>
49.7

$$$$
>  <Molecule>
CC(N)C[Se]c1ccc(N(C)C)cc1 (stereo not drawn)

>  <Value unit>
µM

>  <Ka>
44.1

$$$$
>  <Molecule>
Cc1ccc([Se]CC(C)N)cc1 (stereo not drawn)

>  <Value unit>
µM

>  <Ka>
68.6

$$$$

Turning now to a further record.
Req: What reported Ka corresponds to CC(N)CSc1cccc(Br)c1 (stereo not drawn) on Carbonic anhydrase 13 (Homo sapiens) (UniProt Q8N1Q1)?
Resp: 49.3
